Measured On: MET (human)
Assay Method Text: KINOMEscan competition binding
Measurement Conditions: compound 10.0 µM
For each record, check the reported kinase still bound, per cent of control: if it is below 80% write YES, else write NO.

COc1cc(C(=O)NC2CCN(C)CC2)ccc1Nc1ncc2c(n1)N(C1CCCC1)CC(C)C(=O)N2C (stereo unspecified)    YES

kinase still bound, per cent of control under 80%? Item: CN1CCN(c2ccc(C(=O)Nc3ncc4c(n3)N(C)c3ccccc3C(=O)N4C)cc2)CC1
NO

Check CN1C(=O)c2ccccc2N(C)c2nc(NS(=O)(=O)c3ccc(N)cc3)ncc21 too.
NO

Repeat for the following compound: COc1cc(N2CCC(C)(O)CC2)ccc1Nc1ncc2c(n1)N(C1CCCC1)CCC(=O)N2C
YES

What would you report for CN1C(=O)c2ccccc2N(C)c2nc(Nc3ccc(N4CCC(O)CC4)cc3)ncc21 ?
YES

Entry to check: CN1C(=O)[C@H]2CCC[C@H]2N(C2CCCC2)c2nc(Nc3ccc(C(N)=O)cc3)ncc21
YES

Reference source for all entries: the kinase profiling compilation of Christmann-Franck et al. (2016)
